Value source: patent US20200397865A1

Each entry below carries its reported Kd.
Molecular target: T1, ALK4-Fc:ActRIIB-Fc heterodimer (human, UniProt P36896 24-126; Q13705 20-134)
T1 construct: also called ALK4-Fc:ActRIIB-Fc heterodimeric complex; ALK4:ActRIIB heterodimer; not shown: linker and engineered Fc
T1 sequence 1: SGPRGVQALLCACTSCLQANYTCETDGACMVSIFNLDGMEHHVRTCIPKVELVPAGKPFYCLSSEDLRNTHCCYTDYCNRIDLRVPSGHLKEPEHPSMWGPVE
T1 sequence 2: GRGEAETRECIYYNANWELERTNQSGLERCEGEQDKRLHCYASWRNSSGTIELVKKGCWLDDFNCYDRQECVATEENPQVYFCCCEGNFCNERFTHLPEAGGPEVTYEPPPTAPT
Assay: SPR (Biacore), Fc protein captured by anti-Fc antibody, ligand injected
readout.label: Kd

binder	reported.result
activin A (ligand, UniProt P08476 311-426, looked up, also called ActA) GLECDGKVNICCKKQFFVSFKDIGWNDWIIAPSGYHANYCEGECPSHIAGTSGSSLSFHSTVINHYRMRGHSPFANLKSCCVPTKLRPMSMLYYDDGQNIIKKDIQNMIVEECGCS	12 pM
BMP10 (ligand, UniProt O95393 317-424, looked up) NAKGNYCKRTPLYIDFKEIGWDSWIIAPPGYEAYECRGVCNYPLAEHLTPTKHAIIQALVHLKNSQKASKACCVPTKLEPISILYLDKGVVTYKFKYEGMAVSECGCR	74 pM
GDF3 (ligand, UniProt Q9NR23 251-364, looked up) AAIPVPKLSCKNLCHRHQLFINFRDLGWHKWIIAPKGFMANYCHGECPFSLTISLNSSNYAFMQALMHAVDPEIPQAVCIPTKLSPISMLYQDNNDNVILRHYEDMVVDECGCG	4900 pM
